Below are pIC50 values measured for Acetylcholinesterase (Electrophorus electricus, UniProt O42275).
Scale explanation: pIC50 corresponds to minus log10 of a concentration expressed in moles per litre.

These solved cases illustrate the format of a correct answer.
COc1ccc2cc3[n+](cc2c1OCCC(=O)Nc1ccc(Cl)cc1)CCc1cc2c(cc1-3)OCO2; 5.41
COc1ccc2cc3[n+](cc2c1OCCCSc1ccc2ccccc2c1)CCc1cc2c(cc1-3)OCO2; 6.30
COc1ccc2cc3[n+](cc2c1OCCCCOc1ccc(Cl)cc1)CCc1cc2c(cc1-3)OCO2; 5.82
COc1ccc2cc3[n+](cc2c1OCCCCOc1ccc(Br)cc1)CCc1cc2c(cc1-3)OCO2; 6.13
COc1ccc2cc3[n+](cc2c1OCCCN(C)c1ccccc1)CCc1cc2c(cc1-3)OCO2; 6.81

Just so you know, measured pIC50 for COc1ccc2cc3[n+](cc2c1OCCCOc1ccc2ccccc2c1)CCc1cc2c(cc1-3)OCO2 came out at 6.44

Just so you know, measured pIC50 for COc1ccc(OCCCCOc2c(OC)ccc3cc4[n+](cc23)CCc2cc3c(cc2-4)OCO3)cc1 came out at 6.13

Just so you know, measured pIC50 for COc1ccc2cc3[n+](cc2c1OCC[n+]1cccc(C)c1)CCc1cc2c(cc1-3)OCO2 came out at 7.32

Values from ChEMBL document CHEMBL1165944
